We begin with a simple list: items and their reported FXa assay % of FXa alone, 2.5 nM Ab, 10 nM TFPI.
# system_tested: recombinant human TFPI (tissue factor pathway inhibitor) (human, UniProt P10646 29-304)
# protocol_summary: cell-based or functional assay
Express it in %; write the number only.

binder	units_label	test_value
clone A67 (antibody, V domains shown) VH: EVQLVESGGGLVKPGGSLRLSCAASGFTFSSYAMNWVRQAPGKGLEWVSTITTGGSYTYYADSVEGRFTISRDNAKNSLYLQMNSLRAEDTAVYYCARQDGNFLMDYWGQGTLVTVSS VL: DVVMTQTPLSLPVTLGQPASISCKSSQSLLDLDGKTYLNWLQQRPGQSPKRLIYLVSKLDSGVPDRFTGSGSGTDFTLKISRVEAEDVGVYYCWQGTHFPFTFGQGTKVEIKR	%	8
clone 4208 (antibody, V domains shown) VH: EVQLVESGGGLVKSGGSLRLSCAASGFTFSSYAMSWVRQAPGKGLEWVGTITTGGSYTYYADSVQGRFTISRDNAKNSLYLQMNSLRAEDTAVYYCARQDGNFLMDYWGQGTLVTVSS VL: DVVMTQTPLSLPVTLGQPASISCKSSQSLLDTDGKTYLNWLQQRPGQSPKRLIYLVSKLDSGVPDRFTGSGSGTDFTLKISRVEAEDVGVYYCWQGTHFPFTFGQGTKVEIKR	%	5

Field: next binder
Query: Entry clone 3241 (antibody, V domains shown, scFv on yeast at selection; human IgG4/kappa IgG as purified; also called No. 3241 antibody) VH: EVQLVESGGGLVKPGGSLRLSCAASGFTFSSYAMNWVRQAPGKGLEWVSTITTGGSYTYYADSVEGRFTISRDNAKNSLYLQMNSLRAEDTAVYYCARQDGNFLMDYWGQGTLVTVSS VL: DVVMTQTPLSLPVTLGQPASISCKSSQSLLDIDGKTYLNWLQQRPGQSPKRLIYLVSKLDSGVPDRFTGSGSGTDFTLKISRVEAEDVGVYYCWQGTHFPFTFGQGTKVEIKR : reported FXa assay % of FXa alone, 2.5 nM Ab, 10 nM TFPI = ?
Result: 11.2

Data origin, for the record: patent US20180030151A1
